B1: library; numbered along this chain (parent)
chain: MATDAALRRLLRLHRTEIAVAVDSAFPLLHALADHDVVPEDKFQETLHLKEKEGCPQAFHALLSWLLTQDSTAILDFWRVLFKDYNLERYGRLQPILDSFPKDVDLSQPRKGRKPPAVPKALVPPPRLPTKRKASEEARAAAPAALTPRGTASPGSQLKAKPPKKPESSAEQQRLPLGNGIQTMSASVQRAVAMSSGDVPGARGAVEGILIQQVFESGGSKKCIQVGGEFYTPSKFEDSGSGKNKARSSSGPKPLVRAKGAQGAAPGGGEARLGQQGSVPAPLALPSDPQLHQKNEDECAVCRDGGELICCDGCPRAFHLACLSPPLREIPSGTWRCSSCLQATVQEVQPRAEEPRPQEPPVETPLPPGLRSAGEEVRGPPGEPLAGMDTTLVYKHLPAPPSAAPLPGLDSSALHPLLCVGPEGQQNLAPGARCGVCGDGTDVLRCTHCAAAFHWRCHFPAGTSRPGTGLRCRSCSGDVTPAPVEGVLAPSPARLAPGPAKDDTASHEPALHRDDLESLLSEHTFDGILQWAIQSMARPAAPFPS

- Variants of: B1
- method_notes: AIRE transcriptional activation functional score (insulin promoter-GFP; nonsense median 0, synonymous median 1) (normalised score); higher = higher AIRE activity (more reporter activation)
- setup_conditions: with insulin promoter-GFP reporter in HEK293
AIRE transcriptional activation functional score vs 0.6: at or above is Yes, below is No.

Record G306M ; criterion: AIRE transcriptional activation functional score no lower than 0.6. Met?
No

Record D514T ; criterion: AIRE transcriptional activation functional score no lower than 0.6. Met?
No

Record A258L ; criterion: AIRE transcriptional activation functional score no lower than 0.6. Met?
Yes

Record V104A ; criterion: AIRE transcriptional activation functional score no lower than 0.6. Met?
No

Record V487K ; criterion: AIRE transcriptional activation functional score no lower than 0.6. Met?
Yes

Record S234A ; criterion: AIRE transcriptional activation functional score no lower than 0.6. Met?
Yes

Record K235G ; criterion: AIRE transcriptional activation functional score no lower than 0.6. Met?
Yes

Record K52W ; criterion: AIRE transcriptional activation functional score no lower than 0.6. Met?
No

Record P499H ; criterion: AIRE transcriptional activation functional score no lower than 0.6. Met?
Yes

Record A271E ; criterion: AIRE transcriptional activation functional score no lower than 0.6. Met?
Yes

Record V80E ; criterion: AIRE transcriptional activation functional score no lower than 0.6. Met?
No

Record P380C ; criterion: AIRE transcriptional activation functional score no lower than 0.6. Met?
No
